# STUDY_SYSTEM: T1, human ROR1-hFc fusion protein (extracellular domain) (human)
# T1 construct: Whole entry 'human ROR1-Fc (CHO)'; also called hROR1; huROR1-Fc
# T1 sequence (chain, as listed by the source limits assumed): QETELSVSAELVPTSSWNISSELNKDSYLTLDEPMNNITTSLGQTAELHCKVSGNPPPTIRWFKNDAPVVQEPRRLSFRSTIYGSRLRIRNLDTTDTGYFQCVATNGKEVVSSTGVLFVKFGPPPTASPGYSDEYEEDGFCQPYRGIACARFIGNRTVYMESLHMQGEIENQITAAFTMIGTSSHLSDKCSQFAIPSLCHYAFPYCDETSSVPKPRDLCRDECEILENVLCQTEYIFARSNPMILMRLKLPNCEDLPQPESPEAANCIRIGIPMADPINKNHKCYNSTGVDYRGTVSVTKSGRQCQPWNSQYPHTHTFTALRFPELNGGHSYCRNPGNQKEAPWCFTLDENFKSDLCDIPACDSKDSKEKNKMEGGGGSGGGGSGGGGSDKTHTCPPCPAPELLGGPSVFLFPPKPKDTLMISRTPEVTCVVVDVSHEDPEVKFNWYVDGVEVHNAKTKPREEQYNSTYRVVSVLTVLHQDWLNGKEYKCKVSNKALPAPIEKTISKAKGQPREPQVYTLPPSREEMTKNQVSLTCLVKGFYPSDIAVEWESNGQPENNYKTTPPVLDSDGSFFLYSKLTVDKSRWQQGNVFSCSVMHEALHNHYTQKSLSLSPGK
# PROTOCOL_DETAILS: SPR, human ROR1 ECD-Fc on chip;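 note: SPR binding kinetics of VNAR and VNAR-Fc molecules run at a range of concentrations over immobilised target, rate and affinity constants fitted with QDat software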
MEASURED_METRIC: koff

Record summary for D3 ADV1 dimer (VNAR, Listing names it 'D3V1 dimer'; also called D3V1 dimer) ASVNQSPSSLSASVGDRVTITCVLTDTSYGLYSTSWFRKNPGTTDWERMSIGGRYSESVNKGAKSFTLTISSLQPEDSATYYCKAQSGMAISTGSGHGYNWYDGAGTKVEIKGGGGSGGGGSGGGGSGGGGSGGGGSASVNQSPSSLSASVGDRVTITCVLTDTSYGLYSTSWFRKNPGTTDWERMSIGGRYSESVNKGAKSFTLTISSLQPEDSATYYCKAQSGMAISTGSGHGYNWYDGAGTKVEIKQASGAHHHHHHGAEFEQKLISEEDL : reported koff = 0.00567 s⁻¹

# credit: patent US20230203155A1
